- TARGET_OR_SYSTEM: CYP2C9 (Homo sapiens, UniProt P11712)
- Sequence (P11712 whole entry): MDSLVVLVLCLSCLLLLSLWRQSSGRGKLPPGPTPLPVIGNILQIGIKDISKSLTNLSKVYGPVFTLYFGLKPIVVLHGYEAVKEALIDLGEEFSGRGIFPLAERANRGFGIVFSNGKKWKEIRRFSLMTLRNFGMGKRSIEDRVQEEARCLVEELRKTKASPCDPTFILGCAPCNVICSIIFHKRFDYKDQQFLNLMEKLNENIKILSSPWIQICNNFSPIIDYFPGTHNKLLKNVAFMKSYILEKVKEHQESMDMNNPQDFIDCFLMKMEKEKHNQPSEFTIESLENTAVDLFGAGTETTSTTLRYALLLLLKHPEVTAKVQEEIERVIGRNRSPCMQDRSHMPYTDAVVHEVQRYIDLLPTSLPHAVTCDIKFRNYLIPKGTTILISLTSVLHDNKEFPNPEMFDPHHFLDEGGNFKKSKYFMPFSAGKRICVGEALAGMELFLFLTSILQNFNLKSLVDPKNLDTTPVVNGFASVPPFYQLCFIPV
- MEASUREMENT_NOTES: In vitro CYP inhibition, 2C9
- Format: in vitro ADME
inhibition at 10 min, 10 µM values, listed per item
Kindly provide the numeric value in % only, without the unit symbol.

Considering Cc1nc(N)c2c(F)c(F)c(SC3CCCCC3)c(F)c2n1 , its inhibition at 10 min, 10 µM with CYP2C9 (Homo sapiens, UniProt P11712) was recorded as 7.9

Would you kindly look at the next entry?
Considering Cc1nc(N)c2c(F)c(F)c(NC3CCCC3)c(F)c2n1 , its inhibition at 10 min, 10 µM with CYP2C9 (Homo sapiens, UniProt P11712) was recorded as 8.6

====

- System: T. cruzi (Sylvio X10/7A1 strain) epimastigote
- MEASUREMENT_NOTES: microbe, parasite or virus in culture
- Format: cell-based
- EXPERIMENTAL_CONDITIONS: WT, epimastigote; read-out: EC50
READOUT_KIND: pEC50
Bear in mind: pEC50 is minus log10 of a mol/L concentration; give just that figure.

Considering O=C(NCC1(O)CCC(F)(F)CC1)c1cc(=O)c2cc(F)ccc2o1 [DDD01510706, reference compound] , its pEC50 with T. cruzi (Sylvio X10/7A1 strain) epimastigote was recorded as 5.85

====

- Tested on: T. cruzi (Sylvio X10/7A1 strain) epimastigote
- MEASUREMENT_NOTES: microbe, parasite or virus in culture
- Type: cell-based
- EXPERIMENTAL_CONDITIONS: Trypanosoma cruzi, read-out: EC50 value, KRS1 OE (overexpressing), epimastigote
pEC50 values, listed per item
Bear in mind: pEC50 is minus log10 of a mol/L concentration; give just that figure.

The recorded pEC50 for entry Cc1nc(N)c2c(F)c(F)c(SC3CCCCC3)c(F)c2n1 [DMU759] equals 6.87

Further cases:
The recorded pEC50 for entry Cc1nc(N)c2c(F)c(F)c(NC3CCCC3)c(F)c2n1 [DMU371] equals 6.20

====

- System: L. donovani (LdBOB) promastigote
- MEASUREMENT_NOTES: Drug sensitivity assay, L. donovani promastigotes
- Format: cell-based
- EXPERIMENTAL_CONDITIONS: Leishmania donovani, WT, promastigote; read-out: EC50 value
pEC50 values, listed per item
Bear in mind: pEC50 is minus log10 of a mol/L concentration; give just that figure.

The recorded pEC50 for entry Cc1nc(N)c2c(F)c(F)c(SC3CCCCC3)c(F)c2n1 equals 6.94

Further cases:
The recorded pEC50 for entry Cc1nc(N)c2c(F)c(F)c(NC3CCCC3)c(F)c2n1 equals 6.28

====

- Tested on: T. cruzi (Sylvio X10/7A1 strain) epimastigote
- MEASUREMENT_NOTES: microbe, parasite or virus in culture
- Format: cell-based
- EXPERIMENTAL_CONDITIONS: Trypanosoma cruzi, read-out: EC50 value, WT, epimastigote
EC50 values, listed per item
Kindly provide the numeric value in nM only, without the unit symbol.

The recorded EC50 for entry Cc1nc(N)c2c(F)c(F)c(NC3CCCC3)c(F)c2n1 equals 63

Would you kindly look at the next entry?
The recorded EC50 for entry Cc1nc(N)c2c(F)c(F)c(SC3CCCCC3)c(F)c2n1 equals 14

====

inhibition at 10 min, 10 µM values, listed per item
- TARGET_OR_SYSTEM: CYP1A2 (Homo sapiens)
- Sequence (P05177 whole entry): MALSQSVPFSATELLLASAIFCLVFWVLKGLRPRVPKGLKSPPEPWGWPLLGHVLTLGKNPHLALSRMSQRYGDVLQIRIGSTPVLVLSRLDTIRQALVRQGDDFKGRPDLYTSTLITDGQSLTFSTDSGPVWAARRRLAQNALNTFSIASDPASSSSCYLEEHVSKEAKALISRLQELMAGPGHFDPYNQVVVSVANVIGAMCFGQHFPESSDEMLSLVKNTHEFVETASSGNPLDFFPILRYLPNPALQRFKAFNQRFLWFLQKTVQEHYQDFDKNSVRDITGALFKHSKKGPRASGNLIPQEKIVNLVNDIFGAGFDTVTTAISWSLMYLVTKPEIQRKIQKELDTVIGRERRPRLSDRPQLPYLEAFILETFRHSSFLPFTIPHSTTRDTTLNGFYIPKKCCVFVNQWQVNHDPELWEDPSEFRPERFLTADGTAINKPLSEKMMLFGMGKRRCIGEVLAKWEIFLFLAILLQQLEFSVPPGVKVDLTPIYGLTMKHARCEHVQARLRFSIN
- MEASUREMENT_NOTES: In vitro CYP inhibition, 1A2
- Format: in vitro ADME
Kindly provide the numeric value in % only, without the unit symbol.

The recorded inhibition at 10 min, 10 µM for entry Cc1nc(N)c2c(F)c(F)c(SC3CCCCC3)c(F)c2n1 [DMU759] equals 61.5

Would you kindly look at the next entry?
The recorded inhibition at 10 min, 10 µM for entry Cc1nc(N)c2c(F)c(F)c(NC3CCCC3)c(F)c2n1 [DMU371] equals 74.8

====

Observed pIC50 values for hERG channel (Homo sapiens) are listed in what follows.
Bear in mind: pIC50 is minus log10 of a mol/L concentration; give just that figure.

The recorded pIC50 for entry Cc1nc(N)c2c(F)c(F)c(NC3CCCC3)c(F)c2n1 equals 5.12

Would you kindly look at the next entry?
The recorded pIC50 for entry Cc1nc(N)c2c(F)c(F)c(SC3CCCCC3)c(F)c2n1 equals 4.91
